# target desc: Voltage-gated inwardly rectifying potassium channel KCNH2 (Homo sapiens) (UniProt Q12809)
# Sequence (Q12809 whole entry, looked up): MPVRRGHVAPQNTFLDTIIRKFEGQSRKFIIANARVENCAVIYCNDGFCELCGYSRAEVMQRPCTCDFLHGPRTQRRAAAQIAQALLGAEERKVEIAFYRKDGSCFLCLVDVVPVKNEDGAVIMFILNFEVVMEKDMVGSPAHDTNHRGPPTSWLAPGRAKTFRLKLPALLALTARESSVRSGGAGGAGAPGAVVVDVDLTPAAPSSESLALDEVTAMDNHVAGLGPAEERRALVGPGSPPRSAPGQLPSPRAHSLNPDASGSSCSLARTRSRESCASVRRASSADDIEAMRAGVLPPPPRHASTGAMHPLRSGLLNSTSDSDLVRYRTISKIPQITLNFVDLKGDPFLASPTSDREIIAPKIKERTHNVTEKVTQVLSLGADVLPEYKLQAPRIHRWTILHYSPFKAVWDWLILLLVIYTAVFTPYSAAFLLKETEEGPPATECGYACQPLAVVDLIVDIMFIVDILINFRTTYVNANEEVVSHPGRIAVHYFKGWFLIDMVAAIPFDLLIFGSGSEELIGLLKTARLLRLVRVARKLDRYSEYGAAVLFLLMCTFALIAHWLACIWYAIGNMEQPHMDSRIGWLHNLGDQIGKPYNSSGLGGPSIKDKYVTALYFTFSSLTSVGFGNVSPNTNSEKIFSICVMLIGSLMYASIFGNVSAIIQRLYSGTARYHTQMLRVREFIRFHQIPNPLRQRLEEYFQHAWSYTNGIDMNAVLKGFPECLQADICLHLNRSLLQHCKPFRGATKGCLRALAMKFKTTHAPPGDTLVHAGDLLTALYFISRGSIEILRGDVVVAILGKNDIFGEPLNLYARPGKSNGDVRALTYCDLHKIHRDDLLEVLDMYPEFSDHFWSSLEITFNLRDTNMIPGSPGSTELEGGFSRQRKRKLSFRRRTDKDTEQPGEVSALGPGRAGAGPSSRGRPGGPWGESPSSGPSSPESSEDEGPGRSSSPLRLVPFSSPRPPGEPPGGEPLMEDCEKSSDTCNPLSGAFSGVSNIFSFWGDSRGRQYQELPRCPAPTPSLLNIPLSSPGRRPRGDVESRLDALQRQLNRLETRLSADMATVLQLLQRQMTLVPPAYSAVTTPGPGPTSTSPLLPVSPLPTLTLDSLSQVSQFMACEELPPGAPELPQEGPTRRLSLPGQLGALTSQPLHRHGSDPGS
# protocol notes: Human Ether-a-go-go-Related Gene (hERG) channel small molecule antagonists: fluorescence cell-based qHTS assay (AID 1671200); also: nearly all actives have a fitted effect of over 50% in size
# setup conditions: hERG-U2OS cells, FluxOR thallium flux fluorescence; series mostly up to 76.8 µM
Results filed as inconclusive are left out. The source made the active and inactive calls. Calls follow the shape of the dose curve; as a rule, active = well fitted inhibition curve with a large enough effect in the repeat runs; inconclusive = weak or mixed curves; inactive = flat fitted curve, though single readings scatter.
// classify into active, inactive

Challenge: // param item: `c1ccc(CN(CC2=NCCN2)c2ccccc2)cc1` ; yields the recorded call
Response given: active

Challenge: // param item: `ClC(Cl)Cl` ; yields the recorded call
Response given: inactive

Challenge: // param item: `CCCCCCCCCC/C=C/C#N` ; yields the recorded call
Response given: inactive

Challenge: // param item: `CN(C)Cc1ccccc1` ; yields the recorded call
Response given: inactive

Challenge: // param item: CC(Oc1c(Cl)cccc1Cl)C1=NCCN1 (centres undefined) ; yields the recorded call
Response given: inactive

Challenge: // param item: `CCOc1ccccc1N` ; yields the recorded call
Response given: active

Challenge: // param item: CCCCC1CCC(=O)O1 (centres undefined) ; yields the recorded call
Response given: inactive

Challenge: // param item: Cc1ccccc1C(=O)Nc1ccc(C(=O)N2CCCC(O)c3cc(Cl)ccc32)c(C)c1 (centres undefined) ; yields the recorded call
Response given: inactive

Challenge: // param item: `C=C(C)C(=O)OCCOP(=O)(O)O` ; yields the recorded call
Response given: inactive

Challenge: // param item: `CN1CCN(N)CC1` ; yields the recorded call
Response given: inactive

Challenge: // param item: `Cc1nnc(SCC2=C(C(=O)O)N3C(=O)[C@@H](NC(=O)Cn4cnnn4)[C@H]3SC2)s1` ; yields the recorded call
Response given: inactive

Challenge: // param item: CCOC(=O)C(Br)c1ccccc1 (centres undefined) ; yields the recorded call
Response given: inactive

Challenge: // param item: `C=CCCCCCCCCO` ; yields the recorded call
Response given: inactive

Challenge: // param item: `CC(=O)OC(C)OC(C)=O` ; yields the recorded call
Response given: inactive

Challenge: // param item: `CC(C)(C)c1ccc(OC(=O)c2ccccc2O)cc1` ; yields the recorded call
Response given: inactive

Challenge: // param item: `CCCCCCCCCCCCCCCCOP(=O)([O-])OCC[N+](C)(C)C` ; yields the recorded call
Response given: inactive

Challenge: // param item: `CC(C)Nc1nc(N)nc(Cl)n1` ; yields the recorded call
Response given: inactive

Challenge: // param item: `CCN(CC)C(=O)N(CC)CC` ; yields the recorded call
Response given: inactive

Challenge: // param item: CC(CNC1CCCCC1)OC(=O)c1ccccc1 (centres undefined) ; yields the recorded call
Response given: inactive

Challenge: // param item: `N#Cc1ccc(C(c2ccc(C#N)cc2)n2cncn2)cc1` ; yields the recorded call
Response given: inactive

Challenge: // param item: `O=C(O)[C@@H]1CSCN1` ; yields the recorded call
Response given: inactive

Challenge: // param item: `CC(=O)O[C@H]1CC[C@@]2(C)C(=CC[C@@H]3[C@@H]2CC[C@]2(C)C(C(C)=O)=CC[C@@H]32)C1` ; yields the recorded call
Response given: inactive

Challenge: // param item: `CC(C)c1ccccc1` ; yields the recorded call
Response given: inactive

Challenge: // param item: `Cc1ccc(C)c(N)c1` ; yields the recorded call
Response given: inactive

Challenge: // param item: `C/C(=N\O)[C@@H](C)NCC(C)(C)CN[C@H](C)/C(C)=N/O` ; yields the recorded call
Response given: inactive

Challenge: // param item: `C=CCCC=C` ; yields the recorded call
Response given: inactive

Challenge: // param item: `CCC(=O)O[C@]1(C(=O)SCF)[C@H](C)C[C@H]2[C@@H]3C[C@H](F)C4=CC(=O)C=C[C@]4(C)[C@@]3(F)[C@@H](O)C[C@@]21C` ; yields the recorded call
Response given: inactive

Challenge: // param item: `CC(C)OC(C)C` ; yields the recorded call
Response given: inactive

Challenge: // param item: CC1(O)CSC(C)(O)CS1 (centres undefined) ; yields the recorded call
Response given: inactive

Challenge: // param item: `O=C1CCCCCCCCCCC(=O)OCCO1` ; yields the recorded call
Response given: inactive

Challenge: // param item: `CO[C@@]1(NC(=O)CSCC#N)C(=O)N2C(C(=O)O)=C(CSc3nnnn3C)CS[C@@H]21` ; yields the recorded call
Response given: inactive

Challenge: // param item: `O=C1CCCc2ccccc21` ; yields the recorded call
Response given: inactive

Challenge: // param item: `O=[N+]([O-])c1nccn1CO[C@@H](CO)[C@H](O)CO` ; yields the recorded call
Response given: inactive

Challenge: // param item: `COC(=O)N[C@H](C(=O)N[C@@H](Cc1ccccc1)[C@@H](O)CN(Cc1ccc(-c2ccccn2)cc1)NC(=O)[C@@H](NC(=O)OC)C(C)(C)C)C(C)(C)C` ; yields the recorded call
Response given: inactive

Challenge: // param item: O=C1CCCCC1C1CCCCC1 (centres undefined) ; yields the recorded call
Response given: inactive

Challenge: // param item: `O=C(O)C(=O)Cc1c[nH]c2ccccc12` ; yields the recorded call
Response given: inactive

Challenge: // param item: `FC(F)(F)C(F)(F)C(F)(F)C(F)(F)C(F)(F)C(F)(F)C(F)(F)C(F)(F)Br` ; yields the recorded call
Response given: inactive

Challenge: // param item: `CCCCOc1cc(C(=O)NCCN(CC)CC)c2ccccc2n1` ; yields the recorded call
Response given: active

Challenge: // param item: `O=C(O)[C@@H](O)[C@H](O)[C@H](O)[C@@H](O)C(=O)O` ; yields the recorded call
Response given: inactive

Challenge: // param item: `CC1(C)C(=O)N(Cl)C(=O)N1Br` ; yields the recorded call
Response given: inactive

Challenge: // param item: `OCc1ccccc1O` ; yields the recorded call
Response given: inactive

Challenge: // param item: `CC1(C)O[C@@H]2C[C@H]3[C@@H]4CCC5=CC(=O)CC[C@]5(C)[C@@]4(F)[C@@H](O)C[C@]3(C)[C@]2(C(=O)CCl)O1` ; yields the recorded call
Response given: inactive

Challenge: // param item: `Cc1c(C(=O)NCCO)[n+](=O)c2ccccc2n1[O-]` ; yields the recorded call
Response given: inactive

Challenge: // param item: `Cc1ncc(CO)c(CN)c1O` ; yields the recorded call
Response given: inactive
